Reported MIC90 by item:
- Tested on: K. pneumoniae clinical isolates
- METHOD_SUMMARY: microbe, parasite or virus in culture
- CONDITION_DETAILS: Worldwide isolates 2011-2013, K. pneumoniae n = 114

The following compounds have reported results that may help.
Quick one: MIC90 for CNC(C)C1CCC(N)C(OC2C(N)CC(N)C(OC3OCC(C)(O)C(NC)C3O)C2O)O1 (stereo not shown) [Gentamicin, gentamicin, reference compound] ?
> 32 µg/mL

What do you have for C[C@H]1COc2c(N3CCN(C)CC3)c(F)cc3c(=O)c(C(=O)O)cn1c23 [LEV, levofloxacin, reference compound] ?
> 32 µg/mL

Next:
Which MIC90 is listed for CC(C)(O/N=C(\C(=O)N[C@@H]1C(=O)N2C(C(=O)[O-])=C(C[n+]3ccccc3)CS[C@H]12)c1csc(N)n1)C(=O)O [Ceftazidime, ceftazidime, reference compound] ?
> 32 µg/mL

Could you do the same for C[C@@H](O)[C@H]1C(=O)N2C(C(=O)O)=C(S[C@@H]3CN[C@H](C(=O)N(C)C)C3)[C@H](C)[C@H]12 [Meropenem, meropenem, reference compound] , please?
> 16 µg/mL
